MEASUREMENT_PROTOCOL: Evaluation of conversion rate to active form in buffer solution (Experimental Example 1)
Assay type: physicochemical
MEASUREMENT_PARAMETERS: pH6.0, 2 hr, 37° C., 25 umol/L in buffer solution
Counter-ions that a name gives are not always drawn.
A collection of compounds and their measured Residual rate
State the result as a value with its unit after it.

Answered cases to consult:
INSERT INTO results (compound, attribute_measured, value) VALUES
  ('CC(C)N(CC1CCCCN1)C(=O)Oc1cc(O)c2c(=O)cc(-c3ccccc3Cl)oc2c1[C@H]1CCN(C)C[C@H]1O (stereo partly shown) [Example 10]', 'Residual rate', '79.4%'),
  ('CCN(C[C@H]1CCCCN1)C(=O)Oc1cc(O)c2c(=O)cc(-c3ccccc3Cl)oc2c1[C@H]1CCN(C)C[C@H]1O [Example 2]', 'Residual rate', '81.0%'),
  ('CN1CC[C@H](c2c(OC(=O)N(CCC(F)(F)F)CC3CCCCN3)cc(O)c3c(=O)cc(-c4ccccc4Cl)oc23)[C@H](O)C1 (stereo partly shown) [Example 13]', 'Residual rate', '40.2%'),
  ('CN1CC[C@H](c2c(OC(=O)N(C)C[C@@H]3CCCCN3)cc(O)c3c(=O)cc(-c4ccccc4Cl)oc23)[C@H](O)C1 [Example 3]', 'Residual rate', '85.3%'),
  ('CN1CC[C@H](c2c(OC(=O)N(C)CC3CCCCN3)cc(O)c3c(=O)cc(-c4ccccc4Cl)oc23)[C@H](O)C1 (stereo partly shown) [Example 8]', 'Residual rate', '86.5%'),
  ('CCNC(=O)Oc1cc(O)c2c(=O)cc(-c3ccccc3Cl)oc2c1[C@H]1CCN(C)C[C@H]1O [Comparative Example 1, reference compound]', 'Residual rate', '1.3%');

Prompt: What value of Residual rate has been reported for the following compound? CN1CC[C@H](c2c(OC(=O)N(Cc3ccccc3)CC3CCCCN3)cc(O)c3c(=O)cc(-c4ccccc4Cl)oc23)[C@H](O)C1 (stereo partly shown) [Example 15]
Response: 62.8%

Prompt: Value lookup for Residual rate; key = CN1CC[C@H](c2c(OC(=O)N(CCF)CC3CCCCN3)cc(O)c3c(=O)cc(-c4ccccc4Cl)oc23)[C@H](O)C1 (stereo partly shown) [Example 11]
Response: 49.8%

Prompt: Quick one: Residual rate for CCN(CCC1CCCCN1)C(=O)Oc1cc(O)c2c(=O)cc(-c3ccccc3Cl)oc2c1[C@H]1CCN(C)C[C@H]1O (stereo partly shown) [Example 16] ?
Response: 63.0%

Prompt: Fill blank: measured Residual rate of the compound CCCN(C[C@H]1CCCCN1)C(=O)Oc1cc(O)c2c(=O)cc(-c3ccccc3Cl)oc2c1[C@H]1CCN(C)C[C@H]1O [Example 6] is ____.
Response: 82.5%

Prompt: // lookup Residual rate for COCCN(CC1CCCCN1)C(=O)Oc1cc(O)c2c(=O)cc(-c3ccccc3Cl)oc2c1[C@H]1CCN(C)C[C@H]1O (stereo partly shown) [Example 12]
Response: 56.2%

Prompt: What value of measured Residual rate is listed for CN1CC[C@H](c2c(OC(=O)N(CCCC(F)(F)F)CC3CCCCN3)cc(O)c3c(=O)cc(-c4ccccc4Cl)oc23)[C@H](O)C1 (stereo partly shown) [Example 14] ?
Response: 31.8%

Prompt: Suppose we examine the compound CCN(CC1CCCCN1)C(=O)Oc1cc(O)c2c(=O)cc(-c3ccccc3Cl)oc2c1[C@H]1CCN(C)C[C@H]1O (stereo partly shown) [Example 7, dihydrochloride] ; what Residual rate value has been reported?
Response: 87.5%
